Measurement notes: Protein binding in human plasma at 10 uM incubated for 4 hrs by equilibrium dialysis
Format: ADME, cell-free
Settings: read-out: PPB
Measured quantity: fraction unbound at 4 h, 10 µM

• COc1ccc(CNC(=O)c2cc(C#CC(C)(C)NC(C)=O)cnc2NCc2ccc3c(c2)OCO3)cc1Cl = 0.01
• Cc1ccc(CNC(=O)c2cc(C#CC(C)(C)O)cnc2NCc2ccc3c(c2)OCO3)cc1C(F)F = 0.01

---

Below, each entry is listed with its recorded Ratio.
Measurement notes: Ratio of free drug concentration in brain of Sprague-Dawley rat model of high-fat diet-induced obesity at 30 mg/kg, po BID for 3 week to IC50 for displacement of [125I]human ghrelin from rat ghrelin receptor expressed in CHO cell membranes
Format: organism-based
Settings: in vivo, 504 h
Measured quantity: Ratio

• Cc1ccc(CNC(=O)c2cc(C#CC(C)(C)O)cnc2NCc2ccc3c(c2)OCO3)cc1C(F)F = 2
• COc1ccc(CNC(=O)c2cc(C#CC(C)(C)NC(C)=O)cnc2NCc2ccc3c(c2)OCO3)cc1Cl = 0.6

---

Measurement notes: Plasma concentration in Sprague-Dawley rat model of high-fat diet-induced obesity at 10 mg/kg, po BID for 3 weeks
Assay type: ADME, organism-based
Measured quantity: concentration at 504 h

* Cc1ccc(CNC(=O)c2cc(C#CC(C)(C)O)cnc2NCc2ccc3c(c2)OCO3)cc1C(F)F | 91 nM
* COc1ccc(CNC(=O)c2cc(C#CC(C)(C)NC(C)=O)cnc2NCc2ccc3c(c2)OCO3)cc1Cl | 1890 nM

---

Assayed target: Growth hormone secretagogue receptor type 1 (Rattus norvegicus)
Measurement notes: Antagonist activity at ghrelin receptor in Sprague-Dawley rat primary pituitary cells assessed as inhibition of ghrelin-induced growth hormone secretion incubated for 15 mins by ELISA method
Format: cell-based, Pituitary gland cell
pIC50: −log10 of the molar value.
Measured quantity: pIC50

• Cc1ccc(CNC(=O)c2cc(C#CC(C)(C)O)cnc2NCc2ccc3c(c2)OCO3)cc1C(F)F = 7.94
• COc1ccc(CNC(=O)c2cc(C3=C[C@@H]4CC[C@H](C3)N4C(C)=O)cnc2NCc2ccc3c(c2)OCO3)cc1Cl = 7.48
• COc1ccc(CNC(=O)c2cc(C#CC(C)(C)NC(C)=O)cnc2NCc2ccc3c(c2)OCO3)cc1Cl = 7.44

---

Consider the following compounds and their measured Ratio readings.
Measurement notes: Ratio of free plasma concentration in Sprague-Dawley rat model of high-fat diet-induced obesity at 30 mg/kg, po BID for 3 week to IC50 for displacement of [125I]human ghrelin from rat ghrelin receptor expressed in CHO cell membranes
Assay type: organism-based
Settings: in vivo, 504 h
Measured quantity: Ratio

- Cc1ccc(CNC(=O)c2cc(C#CC(C)(C)O)cnc2NCc2ccc3c(c2)OCO3)cc1C(F)F: 97
- COc1ccc(CNC(=O)c2cc(C#CC(C)(C)NC(C)=O)cnc2NCc2ccc3c(c2)OCO3)cc1Cl: 8.6

---

Measurement notes: Plasma concentration in Sprague-Dawley rat model of high-fat diet-induced obesity at 30 mg/kg, po BID for 3 weeks
Type: ADME, organism-based
Measured quantity: concentration at 504 h (nM)

* COc1ccc(CNC(=O)c2cc(C#CC(C)(C)NC(C)=O)cnc2NCc2ccc3c(c2)OCO3)cc1Cl | 5670
* Cc1ccc(CNC(=O)c2cc(C#CC(C)(C)O)cnc2NCc2ccc3c(c2)OCO3)cc1C(F)F | 272

---

Examples of molecules with documented pIC50 follow.
Assayed target: Growth hormone secretagogue receptor type 1 (Homo sapiens, UniProt Q92847)
Sequence (Q92847 whole entry): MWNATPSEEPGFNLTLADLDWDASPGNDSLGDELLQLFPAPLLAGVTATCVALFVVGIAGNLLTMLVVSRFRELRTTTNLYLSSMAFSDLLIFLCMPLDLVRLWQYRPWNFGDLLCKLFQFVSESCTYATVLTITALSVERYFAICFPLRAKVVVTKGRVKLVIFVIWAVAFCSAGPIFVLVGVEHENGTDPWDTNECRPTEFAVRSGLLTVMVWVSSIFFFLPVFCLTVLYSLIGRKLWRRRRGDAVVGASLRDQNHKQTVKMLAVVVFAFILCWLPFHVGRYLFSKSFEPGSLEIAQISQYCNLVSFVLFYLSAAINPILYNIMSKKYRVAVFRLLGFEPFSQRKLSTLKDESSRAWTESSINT
Measurement notes: Displacement of [125I]human ghrelin from human ghrelin receptor expressed in CHO cell membranes incubated for 30 mins by scintillation counting method
pIC50: −log10 of the molar value.
Measured quantity: pIC50

- Cc1ccc(CNC(=O)c2cc(C#CC(C)(C)O)cnc2NCc2ccc3c(c2)OCO3)cc1C(F)F: 9.36
- COc1ccc(CNC(=O)c2cc(C#CC(C)(C)NC(C)=O)cnc2NCc2ccc3c(c2)OCO3)cc1Cl: 8.52
- COc1ccc(CNC(=O)c2cc(C3=C[C@@H]4CC[C@H](C3)N4C(C)=O)cnc2NCc2ccc3c(c2)OCO3)cc1Cl: 9.52

---

Assayed target: Growth hormone secretagogue receptor type 1 (Rattus norvegicus, UniProt O08725)
Sequence (O08725 whole entry): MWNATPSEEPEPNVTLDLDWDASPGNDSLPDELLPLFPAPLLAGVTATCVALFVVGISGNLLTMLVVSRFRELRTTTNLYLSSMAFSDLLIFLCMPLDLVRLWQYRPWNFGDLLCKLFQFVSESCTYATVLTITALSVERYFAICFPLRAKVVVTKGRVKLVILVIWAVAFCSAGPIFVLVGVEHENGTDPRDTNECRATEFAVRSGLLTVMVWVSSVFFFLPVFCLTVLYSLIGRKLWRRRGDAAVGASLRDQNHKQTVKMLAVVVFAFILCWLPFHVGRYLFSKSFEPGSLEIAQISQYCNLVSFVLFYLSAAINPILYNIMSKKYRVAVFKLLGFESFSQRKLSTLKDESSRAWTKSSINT
Measurement notes: Displacement of [125I]human ghrelin from rat ghrelin receptor expressed in CHO cell membranes incubated for 30 mins by scintillation counting method
Measured quantity: IC50 (nM)

- COc1ccc(CNC(=O)c2cc(C#CC(C)(C)NC(C)=O)cnc2NCc2ccc3c(c2)OCO3)cc1Cl: 6.6
- COc1ccc(CNC(=O)c2cc(C3=C[C@@H]4CC[C@H](C3)N4C(C)=O)cnc2NCc2ccc3c(c2)OCO3)cc1Cl: 5.6
- Cc1ccc(CNC(=O)c2cc(C#CC(C)(C)O)cnc2NCc2ccc3c(c2)OCO3)cc1C(F)F: 0.28

---

Reported values of IC50 for individual entries
Assayed target: Growth hormone secretagogue receptor type 1 (Rattus norvegicus, UniProt O08725)
Measurement notes: Inverse agonist activity rat ghrelin receptor expressed in HEK293 cells by luciferase reporter gene assay
Format: cell-based
Measured quantity: IC50

- COc1ccc(CNC(=O)c2cc(C3=C[C@@H]4CC[C@H](C3)N4C(C)=O)cnc2NCc2ccc3c(c2)OCO3)cc1Cl: 9.8 nM
- COc1ccc(CNC(=O)c2cc(C#CC(C)(C)NC(C)=O)cnc2NCc2ccc3c(c2)OCO3)cc1Cl: 26 nM
- Cc1ccc(CNC(=O)c2cc(C#CC(C)(C)O)cnc2NCc2ccc3c(c2)OCO3)cc1C(F)F: 5.4 nM

---

Measurement notes: Total clearance in ICR mouse by LC/MS/MS method
Type: ADME, organism-based
Settings: in vivo
Measured quantity: clearance (mL/min/kg)

• COc1ccc(CNC(=O)c2cc(C3=C[C@@H]4CC[C@H](C3)N4C(C)=O)cnc2NCc2ccc3c(c2)OCO3)cc1Cl = 180

---

Measurement notes: Ratio of drug level in brain to plasma of Sprague-Dawley rat at 1 mg/kg, iv after 2 hrs by LC/MS/MS method
Assay type: ADME, organism-based
Settings: read-out: BPR
Collected Kp at 2 h values appear next to each entry.
Measured quantity: Kp at 2 h

• COc1ccc(CNC(=O)c2cc(C#CC(C)(C)NC(C)=O)cnc2NCc2ccc3c(c2)OCO3)cc1Cl = 0.07
• Cc1ccc(CNC(=O)c2cc(C#CC(C)(C)O)cnc2NCc2ccc3c(c2)OCO3)cc1C(F)F = 0.21

---

Measurement notes: Oral bioavailability in ICR mouse by LC/MS/MS method
Type: ADME, organism-based
Settings: in vivo
Measured quantity: bioavailability (%)

* COc1ccc(CNC(=O)c2cc(C3=C[C@@H]4CC[C@H](C3)N4C(C)=O)cnc2NCc2ccc3c(c2)OCO3)cc1Cl | 7.2

Entry source: ChEMBL document CHEMBL3593160
